Catalogue of activation readings, one per entry.
Molecular target: Thyrotropin-releasing hormone receptor (Homo sapiens) (UniProt P34981)
Sequence (P34981 whole entry, looked up): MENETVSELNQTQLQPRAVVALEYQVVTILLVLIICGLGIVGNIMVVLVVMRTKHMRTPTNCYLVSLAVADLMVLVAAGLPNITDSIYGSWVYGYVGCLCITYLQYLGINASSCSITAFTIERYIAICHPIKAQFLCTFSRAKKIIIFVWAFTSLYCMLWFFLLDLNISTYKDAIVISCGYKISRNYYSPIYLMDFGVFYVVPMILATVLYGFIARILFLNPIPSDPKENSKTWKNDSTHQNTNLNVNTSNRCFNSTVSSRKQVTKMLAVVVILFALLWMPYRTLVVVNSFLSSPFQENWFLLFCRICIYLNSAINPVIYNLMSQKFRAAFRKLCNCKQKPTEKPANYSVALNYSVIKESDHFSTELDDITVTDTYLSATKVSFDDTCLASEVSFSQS
Experiment: qHTS for Small Molecule Agonists and Allosteric Enhancers of Human TRH Receptor: Validation Screen for Agonists (AID 493127);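 note: intracellular calcium rise by fluo-8 fluorescence before TRH EC20 addition; 0% is about no effect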
Details: TRH receptor agonist cell assay; at 2 µM; active compounds read high
Protocol: NIH Chemical Genomics Center [NCGC] NIH Molecular Libraries Probe Centers Network [MLPCN] Assay Submitter (PI): Marvin Gershengorn […] For the HTS assay freshly prepared cells are plated at a density of 2000/well in 3 ul of complete DMEM medium containing 10% serum in 1536-well plates and cultured over night at 37 C in a humidified incubator with 5% CO2. […] For the assay, assay plates were loaded into the FDSS kinetic plate reader. […]
API: value field is a number in %; no unit string.

# example entries with known answers
Compound: C1CCc2nnnn2CC1
System name: Thyrotropin-releasing hormone receptor (Homo sapiens) (UniProt P34981)
Quantity name: activation
Experimental result: -0.375

Compound: COc1cc(-c2ccc(=O)[nH]n2)ccc1OC(F)F
System name: Thyrotropin-releasing hormone receptor (Homo sapiens) (UniProt P34981)
Quantity name: activation
Experimental result: -0.438

Compound: C[C@]12CC[C@@H]3c4ccc(O)cc4CC[C@H]3[C@@H]1CC[C@@H]2O
System name: Thyrotropin-releasing hormone receptor (Homo sapiens) (UniProt P34981)
Quantity name: activation
Experimental result: 4.75

Asked: Identify measured activation associated with CC(CCc1ccccc1)NCC(O)c1ccc(O)c(C(N)=O)c1 (stereo not given)
Given back: 0.875

Asked: Let me know recorded activation for "CC(C)NC[C@@H](O)COc1cccc2ccccc12" , thanks.
Given back: 1.94

Asked: Supply activation value. Item: "N[C@H](CO)C(=O)O"
Given back: 0.688

Asked: Give me measured activation, please, for this compound: "CNCCC=C1c2ccccc2CCc2ccccc21"
Given back: 0.625

Asked: Indicate its recorded activation; the compound in question is "CC(C)COC(=O)OCN1C(=O)CN(CCN2CC(=O)N(COC(=O)OCC(C)C)C(=O)C2)CC1=O"
Given back: 0.75

Asked: Specify reported activation for the compound shown: "N[C@@H](Cc1cnc[nH]1)C(=O)O"
Given back: 0.0625

Asked: Identify activation associated with the compound "CC1(C)CCC(NC(=O)[C@@H](N)CCC(=O)O)CC1"
Given back: 0.125
